target: MAGL (recombinant wild-type) (Homo sapiens, UniProt Q99685); experiment: MAGL inhibition, 4-NPA assay (hydrolysis of 4-nitrophenylacetate, absorbance at 405 nm); conditions: 4-NPA assay (footnote [a]: values not marked [b])
measured parameter: IC50 (nM)

O=C1CO[C@H]2CCN(C(=O)N3CCC(C(CCO)c4ccc(F)cc4)CC3)C[C@H]2N1 (mixture of isomers) [Example 26]	33

I: O=C1CO[C@H]2CCN(C(=O)N3CCN(c4c[nH]c5ccc(Cl)cc45)CC3)C[C@H]2N1 (racemic) [Example 14]
II: Cn1ncc2cc(C3CCN(C(=O)N4CC[C@@H]5OCC(=O)N[C@@H]5C4)CC3)ccc21 (racemic) [Example 16]
III: O=C1CO[C@H]2CCN(C(=O)N3CCC(C4c5ccccc5-c5ccccc54)CC3)C[C@H]2N1 (racemic) [Example 4]
Problem: Task for the reader: rank each entry by its IC50, from the minimum upward. Reply: labels, ordered per the request.
Result: III, I, II
(III: 5 nM, I: 133 nM, II: 1500 nM)

I: O=C1CO[C@H]2CCN(C(=O)N3CCC(c4cn(C5COC5)c5ccc(Cl)cc45)CC3)C[C@H]2N1 (relative stereo) [Example 22]
II: O=C1CO[C@H]2CCN(C(=O)N3CCC(C(CCO)c4ccc(F)cc4)CC3)C[C@H]2N1 (single isomer, unassigned; (+)) [Example 31]
III: COc1cncc(C2CCN(C(=O)N3CC[C@@H]4OCC(=O)N[C@@H]4C3)CC2)c1 (single isomer, unassigned) [Example 35]
Problem: Task for the reader: rank each entry by its IC50, from the minimum upward. Reply: labels, ordered per the request.
Result: I, II, III

I: C[C@H](Oc1ccc(F)cc1Cl)C1CCN(C(=O)N2CC[C@@H]3OCC(=O)N[C@@H]3C2)CC1 (single isomer, unassigned) [Example 33]
II: CC(c1ccccc1)N1CCN(C(=O)N2CC[C@@H]3OCC(=O)N[C@@H]3C2)CC1 (mixture of isomers) [Example 15]
Problem: // compare: I vs II , metric IC50, want the smaller Which one? Tell me its label.
Result: I

----------
Sequence of the target: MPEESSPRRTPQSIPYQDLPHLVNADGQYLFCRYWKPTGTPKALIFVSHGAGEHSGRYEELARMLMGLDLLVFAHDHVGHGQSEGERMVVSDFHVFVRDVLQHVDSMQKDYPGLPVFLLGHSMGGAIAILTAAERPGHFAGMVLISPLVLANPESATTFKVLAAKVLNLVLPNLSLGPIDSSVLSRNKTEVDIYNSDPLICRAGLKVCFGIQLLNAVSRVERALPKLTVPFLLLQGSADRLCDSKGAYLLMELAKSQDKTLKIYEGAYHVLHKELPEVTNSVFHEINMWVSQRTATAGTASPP
measured parameter: IC50 (nM)

Completed entries (count: 4):
O=C1CO[C@H]2CCN(C(=O)N3CC(c4ccc(N5CC6CCC(C5)O6)cc4)C3)C[C@H]2N1	8
COc1ccc(C(c2ccc(F)cc2)C2CCN(C(=O)N3CC[C@@H]4OCC(=O)N[C@@H]4C3)CC2)cc1 (single isomer, unassigned) [Example 71]	0.2
CC1CN(C(=O)N2CC[C@@H]3OCC(=O)N[C@@H]3C2)CC[C@@H]1c1ccc(C(C)(F)F)cn1 (single isomer, unassigned)	3300
CC(OC1CN(C(=O)N2CC[C@@H]3OCC(=O)N[C@@H]3C2)C1)c1ccc(F)cc1Cl (single isomer, unassigned)	92

I: O=C1CO[C@H]2CCN(C(=O)N3CC(c4ccc(N5CCC(C(F)(F)F)C5)nc4)C3)C[C@H]2N1 (stereo partly drawn) [Example 273]
II: Cc1ccc(C(c2ccc(F)cc2)C2CCN(C(=O)N3CC[C@@H]4OCC(=O)N[C@@H]4C3)CC2)cc1 (single isomer, unassigned) [Example 69]
Problem: Given I and II , report the one with the higher recorded IC50. Which one? Tell me its label.
Result: I
(I: 2 nM, II: 0.1 nM)

The measured values listed here are drawn from patent US20230117324A1.
